assayRemarks: log P determination by HPLC on reversed-phase columns (C 18), analogous to OECD Guideline 117
Type: physicochemical
experimentalConditions: method [b]
Classification field: YES = logP[b] at or over 4; NO = logP[b] under 4.

Worked examples, 5 compounds total:
> print(dat)
                                   compound  label
1  Cc1cc(F)c(N2C(=O)CN(C(=O)Nc3cccc(F)c3)C2=O)cc1[S+]([O-])CC(F)(F)F (stereo not shown) [compound 46]     NO
2  O=C(Nc1ccc(F)cc1)N1CC(=O)N(c2cc(SCC(F)(F)F)c(Cl)cc2Cl)C1=O [compound 108]    YES
3  O=C(NCC(F)(F)F)N1CC(=O)N(c2cc(SCC(F)(F)F)c(Cl)cc2Cl)C1=O [compound 106]     NO
4  Cc1cc(F)c(N2C(=O)C(C)N(C(=O)NCC(F)(F)F)C2=O)cc1[S+]([O-])CC(F)(F)F (mixture of isomers) [compound 88]     NO
5  CCC(C)NC(=O)N1CC(=O)N(c2cc(SCC(F)(F)F)c(C)cc2F)C1=O (stereo not shown) [compound 44]     NO

Check if logP[b] >= 4 (inclusive). Item: Cc1cc(F)c(N2C(=O)N(C(=O)NCC(C)C)C(C)(C)C2=O)cc1SCC(F)(F)F [compound 76]
YES

Tell me whether logP[b] is at least 4 here: Cc1cc(Cl)c(N2C(=O)CN(C(=O)NCC(C)C)C2=O)cc1[S+]([O-])CC(F)(F)F (racemic) [compound 65]
NO

* * *

assayRemarks: log P determination by HPLC on reversed-phase columns (C 18), analogous to OECD Guideline 117
Type: physicochemical
experimentalConditions: method [a]
Quick reference for logP[a] among some compounds
Give your answer as a number; write no unit.

Example entries and their recorded answers appear below.
> print(dat)
                                   compound   metric  readoutnumber
1  Cc1cc(C)c([S+]([O-])CC(F)(F)F)cc1N1C(=O)CN(C(=O)Nc2cccc(CC(F)(F)F)c2)C1=O (racemic)  logP[a]           3.57
2  Cc1cc(F)c(N2C(=O)CN(C(=O)Nc3ccccc3)C2=O)cc1[S+]([O-])CC(F)(F)F (centres unmarked)  logP[a]           2.89
3  O=C(NCC(F)(F)F)N1CC(=O)N(c2cc([S+]([O-])CC(F)(F)F)c(Cl)cc2Cl)C1=O (racemic)  logP[a]           2.88
4  Cc1cc(F)c(N2C(=O)C(C)N(C(=O)NCC(F)(F)F)C2=O)cc1SCC(F)(F)F (racemic)  logP[a]           3.55

Turning now to a further compound:
What value of logP[a] has been reported for the following compound? Cc1cc(Cl)c(N2C(=O)CN(C(=O)Nc3ccccn3)C2=O)cc1[S+]([O-])CC(F)(F)F (racemic)
2.65

* * *

assayRemarks: log P determination by HPLC on reversed-phase columns (C 18), analogous to OECD Guideline 117
Assay type: physicochemical
experimentalConditions: reversed-phase HPLC column (C 18), pH 2.7, HPLC, acidic range, pH 2.7, 0.1% aqueous formic acid and acetonitrile; read-out: log P(HCOOH)
Overview of reported chromatographic logP across a group of compounds:
Response field accepts a number only; no unit should be typed.

Please review the entries below; each comes with its answer.
> print(dat)
                                   compound                metric  readoutnumber
1  Cc1cc(F)c(N2C(=O)NC(C)(C)C2=O)cc1SCC(F)(F)F  chromatographic logP           2.61
2  Cc1cc(F)c(N2C(=O)CN(C(=O)NC3CC3)C2=O)cc1SCC(F)(F)F  chromatographic logP           3.07
3     Cc1cc(F)c(N2C(=O)CNC2=O)cc1SCC(F)(F)F  chromatographic logP           2.11
4  CCNC(=O)N1C(=O)N(c2cc(SCC(F)(F)F)c(C)cc2F)C(=O)C1C (stereo not shown)  chromatographic logP           3.38
5  Cc1cc(F)c(N2C(=O)CN(C(=O)N3CCOCC3)C2=O)cc1SCC(F)(F)F  chromatographic logP           2.61

Consider the compound Cc1cc(F)c(N2C(=O)NC(C)C2=O)cc1SCC(F)(F)F (stereo not shown) and give its measured chromatographic logP.
2.34

* * *

assayRemarks: log P determination by HPLC on reversed-phase columns (C 18), analogous to OECD Guideline 117
Assay type: physicochemical
experimentalConditions: reversed-phase HPLC column (C 18), pH 2.7, HPLC, acidic range, pH 2.7, 0.1% aqueous formic acid and acetonitrile; read-out: log P(HCOOH)
Would you please tag the item Condition met when its chromatographic logP is 3 or above, and Condition not met when it is below?

These recorded examples may help you get a feel for the data.
> print(dat)
                                   compound              label
1  Cc1cc(F)c(N2C(=O)CN(C(=O)NC3CC3)C2=O)cc1[S+]([O-])CC(F)(F)F (stereo not shown) [Ex. No. 3]  Condition not met
2  Cc1cc(F)c(N2C(=O)CN(C(=O)NCC(C)C)C2=O)cc1[S+]([O-])CC(F)(F)F (stereo not shown) [Ex. No. 15]  Condition not met
3  Cc1cc(F)c(N2C(=O)CNC2=O)cc1[S+]([O-])CC(F)(F)F (stereo not shown) [IIb-1]  Condition not met

Could you please find out whether Cc1cc(F)c(N2C(=O)CN(C(=O)NCC(F)(F)F)C2=O)cc1[S+]([O-])CC(F)(F)F (stereo not shown) [Ex. No. 36] has chromatographic logP that meets 3 or exceeds it?
Condition not met

For this compound, is measured chromatographic logP 3 or higher? Cc1cc(F)c(N2C(=O)CN(C(=O)NC3CC3)C2=S)cc1SCC(F)(F)F [Ex. No. 2]
Condition met

Is it the case that Cc1cc(F)c(N2C(=O)N(C(=O)NC3CC3)C(C)(C)C2=O)cc1SCC(F)(F)F [Ex. No. 74] has chromatographic logP reaching or exceeding 3?
Condition met

Check if chromatographic logP >= 3 (inclusive). Item: Cc1cc(F)c(N2C(=O)CN(C(=O)N3CCOCC3)C2=O)cc1[S+]([O-])CC(F)(F)F (stereo not shown) [Ex. No. 125]
Condition not met

* * *

assayRemarks: log P determination by HPLC on reversed-phase columns (C 18), analogous to OECD Guideline 117
Format: physicochemical
experimentalConditions: reversed-phase HPLC column (C 18), pH 2.7, HPLC, acidic range, pH 2.7, 0.1% aqueous formic acid and acetonitrile; read-out: log P(HCOOH)
Here, each record is paired with measured chromatographic logP data.
Response field accepts a number only; no unit should be typed.

> print(dat)
                             compoundsmiles                metric  readoutnumber
1  Cc1cc(F)c(N2C(=O)CN(C(=O)NCC(F)(F)F)C2=O)cc1SCC(F)(F)F  chromatographic logP           3.28
2     Cc1cc(F)c(N2C(=O)CNC2=S)cc1SCC(F)(F)F  chromatographic logP           2.53

Consider the record given below.
Dear colleague, I am looking for the recorded chromatographic logP of the following compound: Cc1cc(F)c(N2C(=O)CN(C(=O)NCC(C)C)C2=O)cc1SCC(F)(F)F
3.67
